target: SpSla1-D3; experiment: SPOT peptide array binding signal intensity (averaged, normalized) (arbitrary units (background-subtracted, floor 0; scale differs between SH3 domains)); higher = stronger binding of the SH3 domain to the peptide
Could you please report measured SPOT peptide array binding signal intensity for the items listed next?

Q: May I ask what SPOT peptide array binding signal intensity has been recorded for "NPLPKEPRLPKRKVA" ?
Ans: 15

Q: May I ask what SPOT peptide array binding signal intensity has been recorded for "NLDRSKISLPDFDDE" ?
Ans: ≤ 0

Q: May I ask what SPOT peptide array binding signal intensity has been recorded for "RRSKSLPTTPGIRSG" ?
Ans: 15

Q: May I ask what SPOT peptide array binding signal intensity has been recorded for "DTIDNVKSKIQDKEG" ?
Ans: ≤ 0

Q: May I ask what SPOT peptide array binding signal intensity has been recorded for "VKPRQLFPIPLNKVD" ?
Ans: ≤ 0

Q: May I ask what SPOT peptide array binding signal intensity has been recorded for "TPTSGPPLLPPRNTM" ?
Ans: 4.5

Q: May I ask what SPOT peptide array binding signal intensity has been recorded for "NVLRKILEIPLHSFS" ?
Ans: ≤ 0
